Reference source: ChEMBL document CHEMBL5665443

Target: Endonuclease 8-like 2 (Homo sapiens) (UniProt Q969S2);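 further: fluorescence at 594 nm reports NEIL2 cutting and release of a quenched double-stranded DNA oligo substrate, reduced signal read as inhibition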
Sequence (whole entry): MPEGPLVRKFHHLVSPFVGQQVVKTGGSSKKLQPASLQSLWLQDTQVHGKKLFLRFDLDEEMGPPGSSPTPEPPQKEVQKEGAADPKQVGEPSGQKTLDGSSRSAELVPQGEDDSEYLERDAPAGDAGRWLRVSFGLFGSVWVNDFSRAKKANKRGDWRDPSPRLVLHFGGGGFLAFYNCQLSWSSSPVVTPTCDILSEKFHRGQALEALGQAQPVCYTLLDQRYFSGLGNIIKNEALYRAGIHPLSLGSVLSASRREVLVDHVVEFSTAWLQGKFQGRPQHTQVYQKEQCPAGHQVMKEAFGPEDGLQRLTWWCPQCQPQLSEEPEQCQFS
Conditions: Compound Concentration 10.0 uM, Hit No
Description: Inhibition of NEIL2 by quantifying inhibition of NEIL2-mediated cleavage and dissociation of quenched duplex DNA oligonucleotides, measured as fluorescence at 594 nm.
endpoint: inhibition
Kindly format the answer as number then unit.

Field: example entries. Status: answers known.
NCCc1cccs1 9.33%
CC(C)(O)[C@H](F)CN1Cc2cc(NC(=O)c3cnn4cccnc34)c(N3CCOCC3)cc2C1=O 3.79%
COc1ccccc1-n1nc(C2CC(C)(C)OC(C)(C)C2)cc1-c1ccc(Cl)cc1 -4.68%
CC[C@H]1CN2CCc3cc(OC)c(OC)cc3[C@@H]2C[C@@H]1C[C@H]1NCCc2cc(OC)c(OC)cc21 4.51%

Read off the recorded inhibition for Nc1ncnc2c1ncn2[C@@H]1O[C@H](COP(=O)(O)OP(=O)(O)O)[C@@H](O)[C@H]1O 1.69%
